# Test system: MT4
# assay comment: Cytotoxicity against human MT4 cells after 4 days by XTT assay
# Type: cell-based
# condition context: MT4, 96 h
// reported IC50 for each item listed

{"chemical structure": "COc1ccc2c(C)cc(=O)oc2c1COC(=O)[C@@]12CC[C@@](C)(C(=O)O1)C2(C)C", "IC50 (µM)": 62.4}
{"chemical structure": "COc1ccc(N(Cc2c(OC(C)C)ccc3c(C)cc(=O)oc23)C(=O)[C@@]23CC[C@@](C)(C(=O)O2)C3(C)C)cc1", "IC50 (µM)": 34.7}
{"chemical structure": "CCOc1ccc2c(C)cc(=O)oc2c1COC(=O)[C@@]12CC[C@@](C)(C(=O)O1)C2(C)C", "IC50 (µM)": 60.3}
{"chemical structure": "Cc1cc(=O)oc2c(CN(C)C(=O)[C@@]34CC[C@@](C)(C(=O)O3)C4(C)C)c(OC(C)C)ccc12", "IC50 (µM)": 56.6}

====

# assay comment: Therapeutic index, ratio of IC50 for human MT4 cells to EC50 for HIV1 NL4-3 infected in human MT4 cells
# Format: cell-based
# condition context: read-out: Ratio IC50/EC50
// reported selectivity ratio for each item listed
test readout: selectivity ratio

{"chemical structure": "Cc1cc(=O)oc2c(CNC(=O)[C@@]34CC[C@@](C)(C(=O)O3)C4(C)C)c(OC(C)C)ccc12", "recorded result": 1}
{"chemical structure": "Cc1cc(=O)oc2c(CN(C)C(=O)[C@@]34CC[C@@](C)(C(=O)O3)C4(C)C)c(OC(C)C)ccc12", "recorded result": 8}
{"chemical structure": "Cc1cc(=O)oc2c(CSC(=O)[C@@]34CC[C@@](C)(C(=O)O3)C4(C)C)c(OC(C)C)ccc12", "recorded result": 12}

====

# Tested on: MT4
# assay comment: Cytotoxicity against human MT4 cells after 4 days by XTT assay
# Assay type: cell-based
# condition context: MT4, 96 h
One threshold, 20 µM, splits the recorded IC50 values: lower ones are True, equal or higher ones are False.

{"chemical structure": "Cc1cc(=O)oc2c(CSC(=O)[C@@]34CC[C@@](C)(C(=O)O3)C4(C)C)c(OC(C)C)ccc12", "cat": "False"}
{"chemical structure": "COC(=O)COc1ccc2c(C)cc(=O)oc2c1COC(=O)[C@@]12CC[C@@](C)(C(=O)O1)C2(C)C", "cat": "False"}
{"chemical structure": "CCc1cc(=O)c2ccc3c(c2o1)[C@@H](OC(=O)[C@@]12CC[C@@](C)(C(=O)O1)C2(C)C)[C@@H](OC(=O)[C@@]12CC[C@@](C)(C(=O)O1)C2(C)C)C(C)(C)O3", "cat": "True"}
{"chemical structure": "Cc1cc(=O)oc2c(CNC(=O)[C@@]34CC[C@@](C)(C(=O)O3)C4(C)C)c(OC(C)C)ccc12", "cat": "False"}

====

// reported IC50 for each item listed
# Test system: MT2
# assay comment: Cytotoxicity against human MT2 cells after 6 days by XTT assay
# Assay type: cell-based
# condition context: MT2, 144 h

{"chemical structure": "Cc1cc(=O)oc2cc(OC(C)(C)[C@@H](COC(=O)[C@@]34CC[C@@](C)(C(=O)O3)C4(C)C)OC(=O)[C@@]34CC[C@@](C)(C(=O)O3)C4(C)C)ccc12", "value unit": "µM", "IC50": 39.2}
{"chemical structure": "Cc1cc(=O)oc2c([C@H](COC(=O)[C@@]34CC[C@@](C)(C(=O)O3)C4(C)C)OC(=O)[C@@]34CC[C@@](C)(C(=O)O3)C4(C)C)c(OC(C)C)ccc12", "value unit": "µM", "IC50": 39.2}
{"chemical structure": "CC(=O)c1ccc2c(c1C)[C@@H](OC(=O)[C@@]13CC[C@@](C)(C(=O)O1)C3(C)C)[C@@H](OC(=O)[C@@]13CC[C@@](C)(C(=O)O1)C3(C)C)C(C)(C)O2", "value unit": "µM", "IC50": 39.6}
{"chemical structure": "Cc1cc(=O)oc2c([C@H](C)OC(=O)[C@@]34CC[C@@](C)(C(=O)O3)C4(C)C)c(OC(C)C)ccc12", "value unit": "µM", "IC50": 56.5}
{"chemical structure": "CCOc1c(C(C)=O)ccc2c1[C@@H](OC(=O)[C@@]13CC[C@@](C)(C(=O)O1)C3(C)C)[C@@H](OC(=O)[C@@]13CC[C@@](C)(C(=O)O1)C3(C)C)C(C)(C)O2", "value unit": "µM", "IC50": 39.6}
{"chemical structure": "Cc1cc(=O)oc2c3c(ccc12)OC(C)(C)[C@H](OC(=O)[C@@]12CC[C@@](C)(C(=O)O1)C2(C)C)[C@@H]3OC(=O)[C@@]12CC[C@@](C)(C(=O)O1)C2(C)C", "value unit": "µM", "IC50": 39.2}

====

# Test system: MT4
# assay comment: Cytotoxicity against human MT4 cells after 4 days by XTT assay
# Type: cell-based
# condition context: MT4, 96 h
pIC50: −log10 of the molar value.

{"chemical structure": "Cc1cc(=O)oc2c([C@H](COC(=O)[C@@]34CC[C@@](C)(C(=O)O3)C4(C)C)OC(=O)[C@@]34CC[C@@](C)(C(=O)O3)C4(C)C)c(OC(C)C)ccc12", "pIC50": 4.70}
{"chemical structure": "Cc1cc(=O)oc2c([C@H](C)OC(=O)[C@@]34CC[C@@](C)(C(=O)O3)C4(C)C)c(OC(C)C)ccc12", "pIC50": 4.70}
{"chemical structure": "Cc1cc(=O)oc2cc(OC(C)(C)[C@@H](COC(=O)[C@@]34CC[C@@](C)(C(=O)O3)C4(C)C)OC(=O)[C@@]34CC[C@@](C)(C(=O)O3)C4(C)C)ccc12", "pIC50": 4.70}

Data provenance is ChEMBL document CHEMBL1166007.
